Values from BindingDB's records for doi:10.1016/s0960-894x(04)00332-4

Target: Beta-lactamase P99 (Enterobacter cloacae)
Test: Inhibition of hydrolysis of nitrocefin after 5 min pre-incubation with P99 beta-lactamases (class C)
Measured IC50, listed per entry.

# molecule, IC50
rows = [
    ("COC1=C(C(=O)OCc2ccc([N+](=O)[O-])cc2)N2C[C@@H](CC2=O)C1", "160 µM"),
    ("CC[C@@H]1C(=O)N2C[C@@H]1CC(OC)=C2C(=O)OCc1ccc([N+](=O)[O-])cc1", "300 µM"),
    ("COC1=C[C@@H]2CC(=O)N(C2)C1C(=O)O (stereo not given in full)", "140 µM"),
    ("CC[C@@H]1C(=O)N2C[C@@H]1CC(OC)=C2C(=O)O", "100 µM"),
    ("COC1=C[C@@H]2CC(=O)N(C2)C1C(=O)OCc1ccc([N+](=O)[O-])cc1 (stereo not given in full)", "25 µM"),
]
